TARGET OF ASSAY: Rap guanine nucleotide exchange factor 3 (Homo sapiens) (UniProt O95398)
Sequence (O95398 whole entry, looked up): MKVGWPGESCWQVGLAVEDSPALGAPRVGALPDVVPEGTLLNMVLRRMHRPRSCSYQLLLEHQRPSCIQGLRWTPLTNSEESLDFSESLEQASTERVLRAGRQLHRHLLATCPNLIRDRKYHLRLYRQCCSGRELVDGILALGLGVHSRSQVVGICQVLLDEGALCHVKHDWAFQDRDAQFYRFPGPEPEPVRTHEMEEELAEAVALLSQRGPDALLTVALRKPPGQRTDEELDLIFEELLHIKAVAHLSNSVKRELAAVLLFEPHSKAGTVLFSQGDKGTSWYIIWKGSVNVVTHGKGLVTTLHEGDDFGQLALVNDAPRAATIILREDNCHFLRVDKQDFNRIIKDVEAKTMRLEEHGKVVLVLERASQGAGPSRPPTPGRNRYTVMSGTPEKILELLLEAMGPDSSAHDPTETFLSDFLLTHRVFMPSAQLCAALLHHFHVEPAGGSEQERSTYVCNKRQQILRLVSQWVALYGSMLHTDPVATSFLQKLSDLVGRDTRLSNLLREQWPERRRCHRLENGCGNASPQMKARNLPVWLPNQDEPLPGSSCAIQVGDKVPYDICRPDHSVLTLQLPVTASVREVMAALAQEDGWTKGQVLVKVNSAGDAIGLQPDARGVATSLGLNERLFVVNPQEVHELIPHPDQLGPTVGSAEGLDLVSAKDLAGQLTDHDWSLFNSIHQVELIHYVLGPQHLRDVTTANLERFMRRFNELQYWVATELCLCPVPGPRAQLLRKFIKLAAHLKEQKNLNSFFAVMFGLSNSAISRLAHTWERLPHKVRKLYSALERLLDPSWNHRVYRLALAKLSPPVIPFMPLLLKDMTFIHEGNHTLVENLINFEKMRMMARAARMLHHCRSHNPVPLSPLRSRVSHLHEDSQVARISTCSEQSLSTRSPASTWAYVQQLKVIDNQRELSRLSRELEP
TEST DETAILS: Confirmatory qHTS for antagonist of cAMP-regulated guanine nucleotide exchange factor 3 (EPAC1) (AID 1645880); also: nearly all actives have a fitted effect of over 55% in size
RUN PARAMETERS: EPAC1 Rap1B-BODIPY-GDP exchange, fluorescence; series mostly up to 115 µM
Records with an inconclusive call do not appear. Activity calls are given as the source filed them. Calls follow the shape of the dose curve; as a rule, active = well fitted inhibition curve with a large enough effect; inconclusive = small, poorly fitted or top-dose-only effect; inactive = no such curve, though single readings can be large or run the other way.
The reply should be one of these categories: active, inactive

Examples from the recorded data:
INSERT INTO results (compound, target_of_assay, group_label) VALUES
  ('COc1ccc(N2CCN(C(c3ccccc3F)c3sc4nc(-c5ccco5)nn4c3O)CC2)cc1 (stereo not given)', 'Rap guanine nucleotide exchange factor 3 (Homo sapiens) (UniProt O95398)', 'inactive'),
  ('Cc1ccc(S(=O)(=O)Nc2cc(=O)[nH]c(SCC(=O)Nc3cccc(C)c3)n2)cc1', 'Rap guanine nucleotide exchange factor 3 (Homo sapiens) (UniProt O95398)', 'inactive'),
  ('Cc1ccc(S(=O)(=O)/N=C2\SC(CC(=O)Nc3ccc(F)cc3)C(=O)N2c2ccccc2)cc1 (stereo not given)', 'Rap guanine nucleotide exchange factor 3 (Homo sapiens) (UniProt O95398)', 'inactive');

Input: Test call, this compound: Cc1ccc2nccc(/C=C/c3ccc(N(C)C)cc3)c2c1
Output: inactive

Input: Next compound: Cc1[nH]c2ccccc2c1C(c1ccccc1)c1cccs1 (stereo not given)
Output: inactive

Input: Next compound: COc1cc2ccccc2cc1C(=O)N1CC(C)CC(C)C1 (stereo not given)
Output: inactive

Input: Next compound: Cc1cc(/C=C/c2ccnc3ccccc23)ccc1N(C)C
Output: inactive
